Measured CC50 at 48 h by item
- ASSAY METHOD TEXT: Cytotoxicity against dog MDCK cells assessed as cell viability measured after 48 hrs by MTT assay
- Type: toxicity, cell-based, Canis lupus familiaris

Please review the following examples before continuing.
>  <COMPOUND STRUCTURE>
CC(=O)c1cc(C)c(O)c(Cc2[nH]c3ccc(-c4ccccc4)cc3c2Cc2c(O)c(C)cc(C(C)=O)c2O)c1O

>  <VAL>
> 300 µM

$$$$
>  <COMPOUND STRUCTURE>
COc1ccc2cc(-c3ccc4[nH]c(Cc5c(O)c(C)cc(C(C)=O)c5O)c(Cc5c(O)c(C)cc(C(C)=O)c5O)c4c3)ccc2c1

>  <VAL>
> 300 µM

$$$$
>  <COMPOUND STRUCTURE>
CC(=O)c1cc(C)c(O)c(Cc2[nH]c3ccc(-c4cc(C(F)(F)F)cc(C(F)(F)F)c4)cc3c2Cc2c(O)c(C)cc(C(C)=O)c2O)c1O

>  <VAL>
> 300 µM

$$$$

State its CC50 at 48 h for this compound: CC(=O)c1cc(C)c(O)c(Cc2[nH]c3cc(-c4ccc5cccnc5c4)ccc3c2Cc2c(O)c(C)cc(C(C)=O)c2O)c1O
> 300 µM

State its CC50 at 48 h for this compound: CC(=O)c1cc(C)c(O)c(Cc2[nH]c3cc(-c4cc(C(F)(F)F)cc(C(F)(F)F)c4)ccc3c2Cc2c(O)c(C)cc(C(C)=O)c2O)c1O
> 300 µM

State its CC50 at 48 h for this compound: CC(=O)c1cc(C)c(O)c(Cc2[nH]c3cc(-c4ccccc4F)ccc3c2Cc2c(O)c(C)cc(C(C)=O)c2O)c1O
> 300 µM

State its CC50 at 48 h for this compound: CC(=O)c1cc(C)c(O)c(Cc2[nH]c3ccc(-c4ccc5c(c4)CCO5)cc3c2Cc2c(O)c(C)cc(C(C)=O)c2O)c1O
> 300 µM

====

Measured CC50 at 48 h by item
- ASSAY METHOD TEXT: Cytotoxicity against dog MDCK cells assessed as cell viability measured after 48 hrs by MTT assay
- Assay type: toxicity, cell-based, Canis lupus familiaris

Please review the following examples before continuing.
>  <COMPOUND STRUCTURE>
CC(=O)c1cc(C)c(O)c(Cc2[nH]c3ccc(F)cc3c2Cc2c(O)c(C)cc(C(C)=O)c2O)c1O

>  <CC50 at 48 h>
281 µM

$$$$
>  <COMPOUND STRUCTURE>
CC(=O)c1cc(C)c(O)c(Cc2[nH]c3ccc(-c4ccccc4F)cc3c2Cc2c(O)c(C)cc(C(C)=O)c2O)c1O

>  <CC50 at 48 h>
> 300 µM

$$$$
>  <COMPOUND STRUCTURE>
CC(=O)c1cc(C)c(O)c(Cc2[nH]c3ccc(Br)cc3c2Cc2c(O)c(C)cc(C(C)=O)c2O)c1O

>  <CC50 at 48 h>
233 µM

$$$$
>  <COMPOUND STRUCTURE>
COc1ccc(-c2ccc3c(Cc4c(O)c(C)cc(C(C)=O)c4O)c(Cc4c(O)c(C)cc(C(C)=O)c4O)[nH]c3c2)cc1

>  <CC50 at 48 h>
> 300 µM

$$$$
>  <COMPOUND STRUCTURE>
CC(=O)c1cc(C)c(O)c(Cc2[nH]c3ccc(-c4ccc(C)cc4)cc3c2Cc2c(O)c(C)cc(C(C)=O)c2O)c1O

>  <CC50 at 48 h>
> 300 µM

$$$$

State its CC50 at 48 h for this molecule: CC(=O)c1cc(C)c(O)c(Cc2[nH]c3ccccc3c2Cc2c(O)c(C)cc(C(C)=O)c2O)c1O
> 300 µM

State its CC50 at 48 h for this molecule: CC(=O)c1cc(C)c(O)c(Cc2[nH]c3ccc(-c4cccc(O)c4)cc3c2Cc2c(O)c(C)cc(C(C)=O)c2O)c1O
152 µM

State its CC50 at 48 h for this molecule: CC(=O)c1cc(C)c(O)c(Cc2c(Cc3c(O)c(C)cc(C(C)=O)c3O)n(Cc3ccc(F)cc3)c3ccccc23)c1O
> 300 µM
